target: MK2 (Homo sapiens, UniProt P49137); experiment: MK2 degradation in human SW1353 cells (MSD, 24 h); format: cell-based; design: endogenous in cells; host or cells: SW-1353 (ATCC HTB-94); settings: read-out: MK2 MSD SW 1353 24 h Dmax %
Sequence (P49137 whole entry): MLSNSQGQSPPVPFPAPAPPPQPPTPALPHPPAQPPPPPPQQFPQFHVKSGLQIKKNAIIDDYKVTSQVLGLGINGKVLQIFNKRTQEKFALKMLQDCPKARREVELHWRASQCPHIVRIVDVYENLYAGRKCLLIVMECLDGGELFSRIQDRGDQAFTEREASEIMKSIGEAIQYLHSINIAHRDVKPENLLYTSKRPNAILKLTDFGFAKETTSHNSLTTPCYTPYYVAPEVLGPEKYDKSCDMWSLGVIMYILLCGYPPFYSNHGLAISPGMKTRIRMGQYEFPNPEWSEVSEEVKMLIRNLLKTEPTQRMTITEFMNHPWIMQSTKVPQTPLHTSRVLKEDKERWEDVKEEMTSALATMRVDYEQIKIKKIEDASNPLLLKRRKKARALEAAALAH
measured endpoint: Dmax

Past entries and their recorded results:
molecule | measured endpoint | result
Cn1c(=O)n(C2CCC(=O)NC2=O)c2ccc(N3CC(CN4CCN(c5ccc(-c6nccc(-c7cc8c([nH]7)C7(CC7)CNC8=O)n6)c(F)c5)CC4)C3)cc21 (centres unmarked) | Dmax | > 75%
CCc1cc(-c2cc(-c3cc4c([nH]3)C3(CC3)CNC4=O)ccn2)cc(CC)c1N1CCN(CC2CCN(c3ccc4c(c3)n(C)c(=O)n4C3CCC(=O)NC3=O)CC2)CC1 (centres unmarked) | Dmax | 50 to 75%
C[C@@H]1CNc2c(sc3ccc4nc(-c5ccc(CNC(=O)COCCOCCOCCOCCc6cccc7c6n(C)c(=O)n7C6CCC(=O)NC6=O)cc5)ccc4c23)C(=O)N1 (some centres unmarked) | Dmax | > 75%
Cn1c(=O)n(C2CCC(=O)NC2=O)c2cccc(N3CCC(CN4CCN(c5ccc(-c6cc(-c7cc8c([nH]7)CCNC8=O)ccn6)cn5)CC4)CC3)c21 (centres unmarked) | Dmax | > 75%

Turning to the following molecule.
[ask] // query Dmax value for entry Cn1c(=O)n(C2CCC(=O)NC2=O)c2cccc(CCCCCCCN3CCN(c4ccc(F)c(-c5cc(-c6cc7c([nH]6)CCNC7=O)ccn5)c4)CC3)c21 (centres unmarked)
[reply] < 50%

====

biological target: MK2 (Homo sapiens, UniProt P49137); test: MK2 degradation in human THP-1 monocytic cells (MSD, 24 h); assay type: cell-based; parameters: endogenous in cells; details: THP-1 cells, read-out: MK2 MSD THP-1 degradation 24 h GMean External Abs DC50
Below is a list of entries, each paired with its recorded DC50 value.

Past entries and their recorded results:
compound | DC50
C[C@@H]1CNc2c(sc3ccc4nc(-c5ccc(N6CCN(CC7CN(c8cccc9c8n(C)c(=O)n9C8CCC(=O)NC8=O)C7)CC6)cc5)ccc4c23)C(=O)N1 (some centres unmarked) | < 1 nM
C[C@@H]1CNc2c(sc3ccc4nc(-c5cccc(N6CCC(CN7CCN(c8cccc9c(N%10CCC(=O)NC%10=O)cncc89)CC7)CC6)c5)ccc4c23)C(=O)N1 | 1 to 10 nM
C[C@@H]1CNc2c(sc3ccc4nc(-c5cccc(N6CCC(CN7CCC(CCc8cccc9c8n(C)c(=O)n9C8CCC(=O)NC8=O)CC7)CC6)c5)ccc4c23)C(=O)N1 (some centres unmarked) | < 1 nM
C[C@@H]1CN(C)c2c(sc3ccc4nc(-c5ccc(N6CCN(CC7CCN(c8cccc9c8n(C)c(=O)n9C8CCC(=O)NC8=O)CC7)CC6)cc5)ccc4c23)C(=O)N1 (some centres unmarked) | 10 to 100 nM

Turning to the following compound.
[ask] // query DC50 value for entry C[C@@H]1CNc2c(sc3ccc4nc(-c5ccnc(N6CCN(CC7CCN(c8cccc9c8n(C)c(=O)n9C8CCC(=O)NC8=O)CC7)CC6)c5)ccc4c23)C(=O)N1 (some centres unmarked)
[reply] 1 to 10 nM

====

Below is a list of entries, each paired with its recorded DC50 value.
target: MK2 (Homo sapiens); test: MK2 degradation in human THP-1 monocytic cells (MSD, 24 h); assay type: cell-based; design: endogenous in cells; settings: THP-1 cells, read-out: MK2 MSD THP-1 degradation 24 h GMean External Abs DC50

[ask] Give MK2 (Homo sapiens) DC50 for C[C@@H]1CNc2c(sc3ccc4nc(-c5ccnc(N6CCN(CC7CCN(c8ccc9c(c8)n(C)c(=O)n9C8CCC(=O)NC8=O)CC7)CC6)c5)ccc4c23)C(=O)N1 (some centres unmarked) [Compound I-278]
[reply] < 1 nM

[ask] Do the same for C[C@@H]1CNc2c(sc3ccc4nc(-c5ccc(N6CCN(C7CN(c8cccc9c8n(C)c(=O)n9C8CCC(=O)NC8=O)C7)CC6)cc5)ccc4c23)C(=O)N1 (some centres unmarked) [Compound I-262] please
[reply] < 1 nM

[ask] Do the same for Cc1cc(N2CCN(CC3CCN(c4ccc5c(c4)n(C)c(=O)n5C4CCC(=O)NC4=O)CC3)CC2)ccc1-c1cc(-c2cc3c([nH]2)CCNC3=O)ccn1 (centres unmarked) [Compound I-229] please
[reply] > 100 nM
